Test: Stability against degradation by ozone of printed patches
Assay type: physicochemical
Design: key: A: excellent; B: good; C: satisfactory; D: unsatisfactory
Conditions: D: ILFORD Printasia Premium Photo Glossy Paper (nanoporous); ozone 1 ppm, 30° C., 50% relative humidity
Readout Kind: Resistance against Degradation by Ozone (Class) on Recording Sheet D

O=S(=O)([O-])c1cc(/N=N/c2ccc(Nc3nc(NCCO)nc(Nc4ccc(/N=N/c5cc(S(=O)(=O)[O-])c6cccc(S(=O)(=O)[O-])c6c5)cc4)n3)cc2)cc2c(S(=O)(=O)[O-])cccc12.[Na+].[Na+].[Na+].[Na+] [Dye No. I, reference compound]	B

###

Assay: Stability against degradation by ozone of printed patches
Assay type: physicochemical
Design: key: A: excellent; B: good; C: satisfactory; D: unsatisfactory
Conditions: F: EPSON Premium Glossy Photo Paper (nanoporous); ozone 1 ppm, 30° C., 50% relative humidity
Readout Kind: Resistance against Degradation by Ozone (Class) on Recording Sheet F

Recorded results for 8 compounds are shown here.
O=S(=O)([O-])CCNc1nc(Nc2ccc(N=Nc3ccc4cc(S(=O)(=O)[O-])cc(S(=O)(=O)[O-])c4c3)cc2)nc(Nc2ccc(N=Nc3ccc4cc(S(=O)(=O)[O-])cc(S(=O)(=O)[O-])c4c3)cc2)n1.[Na+].[Na+].[Na+].[Na+].[Na+]	A
Cc1cc(Nc2nc(NCCO)nc(Nc3ccc(/N=N/c4cc(S(=O)(=O)[O-])c5cccc(S(=O)(=O)[O-])c5c4)c(C)c3)n2)ccc1/N=N/c1cc(S(=O)(=O)[O-])c2cccc(S(=O)(=O)[O-])c2c1.[Na+].[Na+].[Na+].[Na+] [Dye No. II, Direct Yellow 86, reference compound]	A
O=S(=O)([O-])CCNc1nc(Nc2ccc(N=Nc3cc(S(=O)(=O)[O-])c4cccc(S(=O)(=O)[O-])c4c3)cc2)nc(Nc2ccc(N=Nc3cc(S(=O)(=O)[O-])c4cccc(S(=O)(=O)[O-])c4c3)cc2)n1.[Na+].[Na+].[Na+].[Na+].[Na+]	A
CN(CCS(=O)(=O)[O-])c1nc(Nc2ccc(N=Nc3ccc4cc(S(=O)(=O)[O-])cc(S(=O)(=O)[O-])c4c3)cc2)nc(Nc2ccc(N=Nc3ccc4cc(S(=O)(=O)[O-])cc(S(=O)(=O)[O-])c4c3)cc2)n1.[Na+].[Na+].[Na+].[Na+].[Na+]	A
O=S(=O)([O-])c1cc(/N=N/c2ccc(Nc3nc(NCCCN4CCOCC4)nc(Nc4ccc(/N=N/c5cc(S(=O)(=O)[O-])c6cccc(S(=O)(=O)[O-])c6c5)cc4)n3)cc2)cc2c(S(=O)(=O)[O-])cccc12.[Na+].[Na+].[Na+].[Na+] [Dye No. IV, reference compound]	A
O=C([O-])c1cc(Nc2nc(Nc3ccc(N=Nc4cc(S(=O)(=O)[O-])c5cccc(S(=O)(=O)[O-])c5c4)cc3)nc(Nc3ccc(N=Nc4cc(S(=O)(=O)[O-])c5cccc(S(=O)(=O)[O-])c5c4)cc3)n2)cc(C(=O)[O-])c1.[Na+].[Na+].[Na+].[Na+].[Na+].[Na+]	A
O=S(=O)([O-])c1cc(/N=N/c2ccc(Nc3nc(NCCO)nc(Nc4ccc(/N=N/c5cc(S(=O)(=O)[O-])c6cccc(S(=O)(=O)[O-])c6c5)cc4)n3)cc2)cc2c(S(=O)(=O)[O-])cccc12.[Na+].[Na+].[Na+].[Na+] [Dye No. I, reference compound]	A
O=S(=O)([O-])CCCSc1nc(Nc2ccc(N=Nc3cc(S(=O)(=O)[O-])c4cccc(S(=O)(=O)[O-])c4c3)cc2)nc(Nc2ccc(N=Nc3cc(S(=O)(=O)[O-])c4cccc(S(=O)(=O)[O-])c4c3)cc2)n1.[Na+].[Na+].[Na+].[Na+].[Na+]	A

Report Resistance against Degradation by Ozone (Class) on Recording Sheet F for every entry below.
1. O=S(=O)([O-])CCCSc1nc(Nc2ccc(N=Nc3ccc4cc(S(=O)(=O)[O-])cc(S(=O)(=O)[O-])c4c3)cc2)nc(Nc2ccc(N=Nc3ccc4cc(S(=O)(=O)[O-])cc(S(=O)(=O)[O-])c4c3)cc2)n1.[Na+].[Na+].[Na+].[Na+].[Na+]
2. CN(CCS(=O)(=O)[O-])c1nc(Nc2ccc(N=Nc3cc(S(=O)(=O)[O-])c4cccc(S(=O)(=O)[O-])c4c3)cc2)nc(Nc2ccc(N=Nc3cc(S(=O)(=O)[O-])c4cccc(S(=O)(=O)[O-])c4c3)cc2)n1.[Na+].[Na+].[Na+].[Na+].[Na+]

**Result**
["A", "A"]

###

Test: Light stability of printed patches (Weather-Ometer, xenon lamp)
Format: physicochemical
Parameters: key: A: excellent; B: good; C: satisfactory; D: unsatisfactory
Details: D: ILFORD Printasia Premium Photo Glossy Paper (nanoporous); 20 megalux hours
Readout Kind: Light Stability (Class) on Recording Sheet D

O=S(=O)([O-])c1cc(/N=N/c2ccc(Nc3nc(NCCCN4CCOCC4)nc(Nc4ccc(/N=N/c5cc(S(=O)(=O)[O-])c6cccc(S(=O)(=O)[O-])c6c5)cc4)n3)cc2)cc2c(S(=O)(=O)[O-])cccc12.[Na+].[Na+].[Na+].[Na+] [Dye No. IV, reference compound]	C
CN(CCS(=O)(=O)[O-])c1nc(Nc2ccc(N=Nc3cc(S(=O)(=O)[O-])c4cccc(S(=O)(=O)[O-])c4c3)cc2)nc(Nc2ccc(N=Nc3cc(S(=O)(=O)[O-])c4cccc(S(=O)(=O)[O-])c4c3)cc2)n1.[Na+].[Na+].[Na+].[Na+].[Na+] [Dye No. 14]	B
O=S(=O)([O-])CCCSc1nc(Nc2ccc(N=Nc3ccc4cc(S(=O)(=O)[O-])cc(S(=O)(=O)[O-])c4c3)cc2)nc(Nc2ccc(N=Nc3ccc4cc(S(=O)(=O)[O-])cc(S(=O)(=O)[O-])c4c3)cc2)n1.[Na+].[Na+].[Na+].[Na+].[Na+] [Dye No. 15]	B
Cc1cc(Nc2nc(NCCO)nc(Nc3ccc(/N=N/c4cc(S(=O)(=O)[O-])c5cccc(S(=O)(=O)[O-])c5c4)c(C)c3)n2)ccc1/N=N/c1cc(S(=O)(=O)[O-])c2cccc(S(=O)(=O)[O-])c2c1.[Na+].[Na+].[Na+].[Na+] [Dye No. II, Direct Yellow 86, reference compound]	B

###

Experiment: Stability against degradation by ozone of printed patches
Assay type: physicochemical
Parameters: key: A: excellent; B: good; C: satisfactory; D: unsatisfactory
Settings: G: CANON Photo Paper Pro PR-101 (nanoporous); ozone 1 ppm, 30° C., 50% relative humidity
Readout Kind: Resistance against Degradation by Ozone (Class) on Recording Sheet G

CN(CCS(=O)(=O)[O-])c1nc(Nc2ccc(N=Nc3ccc4cc(S(=O)(=O)[O-])cc(S(=O)(=O)[O-])c4c3)cc2)nc(Nc2ccc(N=Nc3ccc4cc(S(=O)(=O)[O-])cc(S(=O)(=O)[O-])c4c3)cc2)n1.[Na+].[Na+].[Na+].[Na+].[Na+]	A
O=S(=O)([O-])c1cc(/N=N/c2ccc(Nc3nc(NCCCN4CCOCC4)nc(Nc4ccc(/N=N/c5cc(S(=O)(=O)[O-])c6cccc(S(=O)(=O)[O-])c6c5)cc4)n3)cc2)cc2c(S(=O)(=O)[O-])cccc12.[Na+].[Na+].[Na+].[Na+] [Dye No. IV, reference compound]	A
O=S(=O)([O-])CCCSc1nc(Nc2ccc(N=Nc3ccc4cc(S(=O)(=O)[O-])cc(S(=O)(=O)[O-])c4c3)cc2)nc(Nc2ccc(N=Nc3ccc4cc(S(=O)(=O)[O-])cc(S(=O)(=O)[O-])c4c3)cc2)n1.[Na+].[Na+].[Na+].[Na+].[Na+]	A

###

Experiment: Light stability of printed patches (Weather-Ometer, xenon lamp)
Assay type: physicochemical
Design: key: A: excellent; B: good; C: satisfactory; D: unsatisfactory
Settings: A: HP Printing Paper HPP 1122 (paper); 20 megalux hours, 20° C., 50% relative humidity
Readout Kind: Light Stability (Class) on Recording Sheet A

O=C([O-])c1cc(Nc2nc(Nc3ccc(N=Nc4cc(S(=O)(=O)[O-])c5cccc(S(=O)(=O)[O-])c5c4)cc3)nc(Nc3ccc(N=Nc4cc(S(=O)(=O)[O-])c5cccc(S(=O)(=O)[O-])c5c4)cc3)n2)cc(C(=O)[O-])c1.[Na+].[Na+].[Na+].[Na+].[Na+].[Na+] [Dye No. 18]	B
O=S(=O)([O-])c1cc(/N=N/c2ccc(Nc3nc(NCCCN4CCOCC4)nc(Nc4ccc(/N=N/c5cc(S(=O)(=O)[O-])c6cccc(S(=O)(=O)[O-])c6c5)cc4)n3)cc2)cc2c(S(=O)(=O)[O-])cccc12.[Na+].[Na+].[Na+].[Na+] [Dye No. IV, reference compound]	C
CN(CCS(=O)(=O)[O-])c1nc(Nc2ccc(N=Nc3cc(S(=O)(=O)[O-])c4cccc(S(=O)(=O)[O-])c4c3)cc2)nc(Nc2ccc(N=Nc3cc(S(=O)(=O)[O-])c4cccc(S(=O)(=O)[O-])c4c3)cc2)n1.[Na+].[Na+].[Na+].[Na+].[Na+] [Dye No. 14]	B
CN(CCS(=O)(=O)[O-])c1nc(Nc2ccc(N=Nc3ccc4cc(S(=O)(=O)[O-])cc(S(=O)(=O)[O-])c4c3)cc2)nc(Nc2ccc(N=Nc3ccc4cc(S(=O)(=O)[O-])cc(S(=O)(=O)[O-])c4c3)cc2)n1.[Na+].[Na+].[Na+].[Na+].[Na+] [Dye No. 17]	B

**Query** For the compound O=S(=O)([O-])CCCSc1nc(Nc2ccc(N=Nc3cc(S(=O)(=O)[O-])c4cccc(S(=O)(=O)[O-])c4c3)cc2)nc(Nc2ccc(N=Nc3cc(S(=O)(=O)[O-])c4cccc(S(=O)(=O)[O-])c4c3)cc2)n1.[Na+].[Na+].[Na+].[Na+].[Na+] [Dye No. 10] , what Light Stability (Class) on Recording Sheet A is on record?
**Result** B

These entries and their values trace back to patent US20080022467A1.
